Below: a set of entries, each annotated with reported melting point.
propertyName: melting point

INSERT INTO measurements (smilescode, propertyname, resultvalue) VALUES
  ('Cl.Cn1ncc2[nH]c3ccc(Cc4ccccc4CN)cc3c(=O)c21', 'melting point', '> 250 °C'),
  ('Cl.Cn1ncc2[nH]c3ccc(Cc4cccnc4)cc3c(=O)c21', 'melting point', '259 °C'),
  ('Cl.Cn1ncc2[nH]c3ccc(Cc4cccc(CN)c4)cc3c(=O)c21', 'melting point', '> 300 °C'),
  ('Cc1ccc2[nH]c3c(N)nn(C)c3c(=O)c2c1', 'melting point', '> 300 °C'),
  ('Cn1ncc2[nH]c3cccc(-c4cccc(O)c4)c3c(=O)c21', 'melting point', '> 300 °C'),
  ('CCN(C)CCCn1c2ccc(C)cc2c(=O)c2c1cnn2C.Cl', 'melting point', '213 °C');

----------
propertyName: melting point (°C)

INSERT INTO results (compound, propertyname, unitabbrev, modifiersign, resultvalue) VALUES
  ('Cn1ncc2[nH]c3ccc(Cc4ccccc4)cc3c(=O)c21 [Example 11]', 'melting point', '°C', '=', 282),
  ('CSCCn1c2ccc(C)cc2c(=O)c2c1cnn2C [Example 53]', 'melting point', '°C', '=', 125),
  ('Cl.Cn1ncc2[nH]c3ccc(Cc4ccccc4N)cc3c(=O)c21', 'melting point', '°C', '=', 273),
  ('Cl.Cn1ncc2[nH]c3ccc(CCCN)cc3c(=O)c21', 'melting point', '°C', '>', 300),
  ('Cn1ncc2[nH]c3cccc(-c4ccc(O)cc4)c3c(=O)c21 [Example 38]', 'melting point', '°C', '>', 300),
  ('Cn1ncc2[nH]c3ccc(Cc4cccc(C#N)c4)cc3c(=O)c21 [Example 28]', 'melting point', '°C', '=', 275),
  ('Cn1ncc2[nH]c3ccc(-c4cccc(O)c4)cc3c(=O)c21 [Example 40]', 'melting point', '°C', '>', 250),
  ('Cc1ccc2c(c1)c(=O)c1c(cnn1C)n2CCCNS(C)(=O)=O [Example 60]', 'melting point', '°C', '=', 179),
  ('CCc1ccc2c(=O)c3c(cnn3C)[nH]c2c1 [Example 9]', 'melting point', '°C', '=', 263);

----------
Below: a set of entries, each annotated with reported melting point.
propertyName: melting point (°C)

INSERT INTO measurements (smilescode, unitabbrev, modifiersign, resultvalue) VALUES
  ('Cn1ncc2[nH]c3c(Br)cccc3c(=O)c21', '°C', '=', 287),
  ('CCc1cccc2[nH]c3cnn(C)c3c(=O)c12', '°C', '=', 250),
  ('Cn1ncc2[nH]c3cccc(F)c3c(=O)c21', '°C', '>', 300),
  ('COc1ccccc1Cc1ccc2[nH]c3cnn(C)c3c(=O)c2c1', '°C', '=', 255);

----------
Below: a set of entries, each annotated with reported melting point.
Structures can show the parent of a compound that is named as a salt.
propertyName: melting point (°C)

INSERT INTO results (molecule, propertyname, modifiersign, resultvalue) VALUES
  ('CCc1ccc2[nH]c3cnn(C)c3c(=O)c2c1', 'melting point', '=', 266),
  ('Cn1ncc2[nH]c3ccc(Cc4ccccc4Cl)cc3c(=O)c21', 'melting point', '=', 278),
  ('CCc1cccc2c(=O)c3c(cnn3C)[nH]c12', 'melting point', '=', 254),
  ('Cn1ncc2[nH]c3ccc(F)cc3c(=O)c21', 'melting point', '=', 301),
  ('Cc1ccc2c(c1)c(=O)c1c(cnn1C)n2CCN.Cl', 'melting point', '>', 280),
  ('Cn1ncc2[nH]c3c(c(=O)c21)CC(Cc1ccc(Cl)cc1)CC3 (stereo not drawn) (as salt: hydrochloride)', 'melting point', '=', 279),
  ('CCCCn1c2ccc(C)cc2c(=O)c2c1cnn2C', 'melting point', '=', 262),
  ('Cn1ncc2[nH]c3ccc(Cc4ccc(C#N)cc4)cc3c(=O)c21', 'melting point', '=', 291),
  ('Cn1ncc2[nH]c3cc(F)ccc3c(=O)c21', 'melting point', '=', 269),
  ('Cn1ncc2[nH]c3ccc(Cc4cccc(C(N)=O)c4)cc3c(=O)c21', 'melting point', '>', 300),
  ('Cc1ccc2c(c1)c(=O)c1c(cnn1C)n2CCCCCCN(C)C.Cl', 'melting point', '=', 210),
  ('Cn1ncc2[nH]c3c(c(=O)c21)CC(Cc1ccccc1)CC3 (stereo not drawn) (as salt: hydrochloride)', 'melting point', '>', 250),
  ('Cn1ncc2[nH]c3c(F)cccc3c(=O)c21', 'melting point', '>', 300),
  ('Cn1ncc2[nH]c3ccc(Cc4cccc(C(=O)O)c4)cc3c(=O)c21', 'melting point', '>', 300),
  ('Cc1ccc2c(c1)c(=O)c1c(cnn1C)n2CCCN(C)C.Cl', 'melting point', '=', 240),
  ('Cl.Cn1ncc2[nH]c3ccc(Cc4ccc(CN)cc4)cc3c(=O)c21', 'melting point', '>', 300);

----------
Below: a set of entries, each annotated with reported melting point.
propertyName: melting point

INSERT INTO measurements (compound, resultvalue) VALUES
  ('Cn1ncc2[nH]c3c(c(=O)c21)CCCC3 [Example 67]', '> 300 °C'),
  ('Cn1ncc2[nH]c3ccc(Cc4cccc(O)c4)cc3c(=O)c21 [Example 20]', '> 270 °C'),
  ('Cc1ccc2c(c1)c(=O)c1c(cnn1C)n2CCN(C)C.Cl', '255 °C'),
  ('Cn1ncc2[nH]c3ccc(Cc4ccccc4C(N)=O)cc3c(=O)c21 [Example 32]', '> 300 °C'),
  ('Cn1ncc2[nH]c3ccc(NC(=O)c4ccccc4)cc3c(=O)c21 [Example 46]', '> 300 °C'),
  ('Cc1ccc2c(c1)c(=O)c1c(cnn1C)n2CCCl [Example 62]', '196 °C');

----------
propertyName: melting point

INSERT INTO assay_data (smilescode, resultvalue) VALUES
  ('CCCCCCn1c2ccc(C)cc2c(=O)c2c1cnn2C', '80 to 82 °C'),
  ('CN(C)CCOc1ccc(Cc2ccc3[nH]c4cnn(C)c4c(=O)c3c2)cc1.Cl', '235 to 240 °C'),
  ('COc1ccc(Cc2ccc3[nH]c4cnn(C)c4c(=O)c3c2)cc1', '248 to 249 °C'),
  ('Cc1ccc2c(c1)c(=O)c1c(cnn1C)n2CC#N', '214 to 219 °C'),
  ('Cl.Cn1ncc2[nH]c3ccc(Cc4cccc(N)c4)cc3c(=O)c21', '287 °C (dec.)');
